Each recorded value in this set is attributed to patent US20250257060A1.

Experiment notes: Brain-to-blood drug concentration ratio of mice
Type: in vivo
Test context: mouse, brain/plasma, 2 mg/kg IV, 4 h
The entries below come with measured Kp at 4 h values attached.
Just the number, please.

Compound	Kp at 4 h
CC(F)(F)C(=O)N[C@@H]1CCCC[C@H]1N1Cc2ccc(-c3nnc(C(F)F)o3)cc2S1(=O)=O [Compound 1]	0.36

Could you now look at the following compound, please?
According to the records, this compound O=C(N[C@@H]1CCCC[C@H]1N1Cc2ccc(-c3nnc(C(F)F)o3)cc2S1(=O)=O)C(F)F [Compound 2] displays Kp at 4 h of 0.25

---

Experiment notes: Pharmacokinetic test in mice (IV and PO)
Type: in vivo, BALB/c mice
Test context: BALB/c, mouse, plasma; mice, PO 5 mg/kg
// reported AUC(0-inf) per item
Report as: number unit

Compound	Recorded metric	Value
Cn1cc([C@@H]([C@H](O)c2ccccc2)N2Cc3ccc(-c4nnc(C(F)F)o4)cc3S2(=O)=O)cn1 [Compound 80]	AUC(0-inf)	34 µM·h

Looking up O=C(N[C@@H]1COCC[C@H]1N1Cc2ccc(-c3nnc(C(F)F)o3)cc2S1(=O)=O)C(F)F [Compound 13] , I found its AUC(0-inf) recorded as 22 µM·h
